Provide the recorded melting point for the entries that follow.

| Compound | Experimental Result |
| --- | --- |
| NC(=O)c1cccnc1Oc1cccc(Cl)c1 | 225 to 228 °C |
| CCOC(=O)CC1Nc2ccccc2CC(N)C1=O (stereo unspecified) | 71 to 73 °C |
| CN(C)CCCNS(=O)(=O)c1cccc(N)c1 | 89 to 93 °C |

Okay, here is my list. What is melting point for each of these?
1. CN(C)c1cccc2c(S(=O)(=O)Nc3cnc(Br)c(Cl)n3)cccc12
2. N#Cc1ccsc1C1=CC(=O)Nc2cc(-c3ccc(F)cc3)ccc2N1
3. Cc1cc(C=CC#N)cc(Oc2[nH]c(=O)[nH]c(=O)c2C(C)C)c1
4. O=C(N1CCCCC1)N1CC(Oc2cccc(C(F)(F)F)c2)C1
5. O=C(O)C1=C(C(F)(F)F)COc2ccc3ccccc3c21
6. CCC(CC)NC(=O)NC/C=C\COc1cc(CN2CCCCC2)ccn1

Reply text:
1: 180 to 182 °C; 2: 239 to 240 °C; 3: 279 to 280 °C; 4: 50 to 52 °C; 5: 246 to 249 °C; 6: 82 to 84 °C

Okay, here is my list. What is melting point for each of these?
1. CCNC(=S)NC1=Nc2ccccc2CS1
2. Cc1cc2c(=O)[nH][nH]c(=O)c2n1CC(C)C

Reply text:
["191 to 196 °C", "278 to 282 °C"]

---

Provide the recorded melting point for the entries that follow.

| Compound | melting point |
| --- | --- |
| COc1cccc2[nH]c3c(c12)C(=O)N=NC3=O | > 260 °C |

Okay, here is my list. What is melting point for each of these?
1. COc1ccc(-c2cncc(OC3SCC(O)C(O)C3O)c2)c(Cl)c1 (centres undefined)
2. COC(=O)C(C)Oc1ncn(-c2cccc(C(F)(F)F)c2)n1 (centres undefined)
3. NNC(=O)CCc1cccc(F)c1
4. Cc1nc(N2CCCC2)nc(C)c1-c1cccc2c1OC[C@H]2Nc1ccc2c(c1)OC[C@H]2CC(=O)O
5. O=C(Cc1ccsc1)N[C@H]1C[C@H](C(=O)O)Nc2cc(Cl)cc(Cl)c21 (relative stereo)

Reply text:
["218 °C", "135 to 137 °C", "109 to 110 °C", "169 °C", "198 to 200 °C"]

---

Provide the recorded melting point for the entries that follow.

Example cases with answers are listed next.
| Compound | melting point |
| --- | --- |
| CON(C(=O)c1ccc(C(=O)C(C)(C)C)cc1)C(=O)c1ccc(C(=O)C(C)(C)C)cc1 | 103 to 105 °C |
| O=C1C=c2c(c3c4ccccc4[nH]c3c3[nH]c4ccccc4c23)=N1 | > 320 °C |
| FC1(F)C(Oc2cc(Cl)c(Cl)cc2Cl)=C(Oc2cc(Cl)c(Cl)cc2Cl)C(F)(F)C1(F)F | 65 to 68 °C |

Okay, here is my list. What is melting point for each of these?
1. CC(=O)OC1CSC(Oc2cc(F)ccc2-c2cccnc2)C(OC(C)=O)C1OC(C)=O (stereo not given)
2. COc1ccc(C=C2NC(=O)NC2=O)cc1

Reply text:
1. 66 °C
2. 242 to 244 °C

---

Parameter Measured: melting point

| Molecule | melting point |
| --- | --- |
| COc1ccc(Br)c2c1C(=O)CC2 | 125 to 128 °C |
| O=C(O)c1cccc(-c2ccc3c(c2)C(Oc2ccc(Cl)cc2Cl)CCC3)c1 (stereo unspecified) | 176 to 181 °C |
| COC1C(O)C=C(C)C(OC(=O)c2ccccc2)CC1(C)C (stereo unspecified) | 82.5 to 83.5 °C |
| O=C(CC1CCCC1)Nc1c(C(O)(C(F)(F)F)C(F)(F)F)ccc2ccccc12 | 144 to 145 °C |
| CCOC(=O)c1c(Cl)c(CC)c(C)[nH]c1=O | 167 °C |

Continue with the next molecule.
Inquiry: Fill in the blank: the reported melting point of Cn1c(Cl)c(C(=O)O)c2ccc(Cl)cc21 is ____.
Reply text: 243 to 245 °C
